- System: LOC_OS01G57100-cb003;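 note: purified Escherichia coli-expressed rice kinase domain construct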
- ASSAY: thermal shift delta Tm vs DMSO control; higher = stronger stabilization (binding)
- CONDITION_PARAMETERS: 12.5 µM; protein concentration 2 µM
Give thermal shift delta Tm for every item shown.
Report the figure in °C without appending any unit label.

**Query** Provide thermal shift delta Tm value for the following compound: `O=C1Nc2ccccc2/C1=C1/Nc2ccccc2C1=O`
**Result** 0.93

**Query** Provide thermal shift delta Tm value for the following compound: `Cc1cc(Nc2ncc(Cl)c(Nc3ccccc3S(=O)(=O)C(C)C)n2)c(OC(C)C)cc1C1CCNCC1`
**Result** 1.94

**Query** Provide thermal shift delta Tm value for the following compound: `FC(F)c1nc2ccccc2n1-c1nc(N2CCOCC2)nc(N2CCOCC2)n1`
**Result** 0.81

**Query** Provide thermal shift delta Tm value for the following compound: `CCn1c2ccccc2c2cc(Nc3ccnc(NCCCN4CCOCC4)n3)ccc21`
**Result** 0.92

**Query** Provide thermal shift delta Tm value for the following compound: `CCCNC(=O)Nc1ccc(Oc2ncnc3cc(OC)c(OC)cc23)cc1Cl`
**Result** 0.3

**Query** Provide thermal shift delta Tm value for the following compound: `O=C1NCCc2[nH]c(-c3ccncc3)cc21`
**Result** 1.88

**Query** Provide thermal shift delta Tm value for the following compound: `O=C(NCCO)c1cccc(-c2cc(Nc3ccc(OC(F)(F)F)cc3)ncn2)c1`
**Result** 1.41

**Query** Provide thermal shift delta Tm value for the following compound: CC(C)c1cnn2c(NCc3ccccc3-n3cccn3)nc(OC3CCCNC3)nc12 (configuration not stated)
**Result** 0.42

**Query** Provide thermal shift delta Tm value for the following compound: `C[C@@H]1COCCN1c1cc(=O)n2c(n1)N(Cc1cncc(Cl)c1)[C@H](C(F)(F)F)CC2`
**Result** 1.19

**Query** Provide thermal shift delta Tm value for the following compound: CN(C)C/C=C/C(=O)Nc1cc2c(Nc3ccc(F)c(Cl)c3)ncnc2cc1O[C@H]1CCOC1 [Afatinib (BIBW2992)]
**Result** 0.75

**Query** Provide thermal shift delta Tm value for the following compound: `CCOc1cc(C(=O)N2CCC(N3CCN(C)CC3)CC2)ccc1Nc1ncc2c(n1)N(C1CCCC1)c1ccccc1C(=O)N2C`
**Result** 1.18

**Query** Provide thermal shift delta Tm value for the following compound: OC1CCC(Oc2cccc3cnc(Nc4ccc5nc[nH]c5c4)nc23)CC1 (configuration not stated)
**Result** 1.84

**Query** Provide thermal shift delta Tm value for the following compound: `Nc1ncnc2n[nH]c(Nc3ccc(F)cc3)c12`
**Result** 1

**Query** Provide thermal shift delta Tm value for the following compound: `Cc1ccc(NC(=O)c2cccc(C(C)(C)C#N)c2)cc1Nc1ccc2ncn(C)c(=O)c2c1`
**Result** 2.69

**Query** Provide thermal shift delta Tm value for the following compound: `Cn1sc(=O)n(Cc2ccccc2)c1=O`
**Result** 3.29

**Query** Provide thermal shift delta Tm value for the following compound: `CC[C@@](C)(Nc1ccnc(-c2c[nH]c3ncccc23)n1)C(=O)NCC(F)(F)F`
**Result** 2.18

**Query** Provide thermal shift delta Tm value for the following compound: `Cn1cc(-c2ccc3nnc(Sc4ccc5ncccc5c4)n3n2)cn1`
**Result** 0.37

**Query** Provide thermal shift delta Tm value for the following compound: `O=C1NC(=O)/C(=C/c2ccc3c(c2)OC(F)(F)O3)S1`
**Result** 2.63

**Query** Provide thermal shift delta Tm value for the following compound: `Nc1ncc(-c2ccnc(Nc3ccncc3)n2)c(CC2CC2)n1`
**Result** 0.51

**Query** Provide thermal shift delta Tm value for the following compound: `Cc1c(C(=O)Nc2ccc(Oc3ccnc4[nH]cc(-c5ccccc5)c34)c(F)c2)c(=O)n(-c2ccc(F)cc2)n1C`
**Result** 1.48

**Query** Provide thermal shift delta Tm value for the following compound: `CNC(=O)c1ccc(C)c(-n2c(C)cc(OCc3ccc(F)cc3F)c(Br)c2=O)c1`
**Result** 2.4

**Query** Provide thermal shift delta Tm value for the following compound: CN1CCN(c2ccc(C(=O)Nc3n[nH]c4ccc(Cc5cc(F)cc(F)c5)cc34)c(NC3CCOCC3)c2)CC1 [Entrectinib (RXDX-101)]
**Result** 0.09

**Query** Provide thermal shift delta Tm value for the following compound: `Nc1nccc(Oc2ccc3c(C(=O)Nc4cccc(C(F)(F)F)c4)cccc3c2)n1`
**Result** 1.31

**Query** Provide thermal shift delta Tm value for the following compound: `CC(C)(C)c1ccc(S(=O)(=O)/C=C/C#N)cc1`
**Result** 3.12

**Query** Provide thermal shift delta Tm value for the following compound: `CCOc1cn(-c2ccc(F)cc2C)nc1C(=O)Nc1ccc(Oc2ccnc3cc(OC)c(OC)cc23)c(F)c1`
**Result** 0.32

**Query** Provide thermal shift delta Tm value for the following compound: `O=C(c1ccc(Nc2nccc(-c3cc4ccccc4s3)n2)cc1)N1CCC(N2CCCC2)CC1`
**Result** 0.94

**Query** Provide thermal shift delta Tm value for the following compound: `O=C1Nc2ccc(I)cc2/C1=C/c1cc(Br)c(O)c(Br)c1`
**Result** 7.97

**Query** Provide thermal shift delta Tm value for the following compound: `Cn1ncc(Cl)c1-c1cc(C(=O)N[C@H](CN)Cc2ccc(F)c(F)c2)oc1Cl`
**Result** 1.78

**Query** Provide thermal shift delta Tm value for the following compound: Cc1ccc(C(=O)Nc2ccc(CN3CCN(C)CC3)c(C(F)(F)F)c2)cc1C#Cc1cnc2[nH]ncc2c1 [GZD824 Dimesylate]
**Result** 1.83

**Query** Provide thermal shift delta Tm value for the following compound: `OCCn1cc(-c2ccc3c(c2)CC/C3=N\O)c(-c2ccncc2)n1`
**Result** 0.82

**Query** Provide thermal shift delta Tm value for the following compound: `CN(C)Cc1cccc(N=C(c2ccccc2)c2c(O)[nH]c3cc(C(=O)N(C)C)ccc23)c1`
**Result** 0.86

**Query** Provide thermal shift delta Tm value for the following compound: `C=CC(=O)Nc1cccc(Oc2nc(Nc3ccc(N4CCN(C)CC4)cc3)ncc2Cl)c1`
**Result** -0.75

**Query** Provide thermal shift delta Tm value for the following compound: `Cc1ccc(S(=O)(=O)/C=C/C#N)cc1`
**Result** 3.66

**Query** Provide thermal shift delta Tm value for the following compound: `COc1cc(N2CCN(C)CC2)ccc1Nc1nccc(-c2cn(C)c3cnccc23)n1`
**Result** 1.48

**Query** Provide thermal shift delta Tm value for the following compound: `COc1cc(OC)cc(N(CCNC(C)C)c2ccc3ncc(-c4cnn(C)c4)nc3c2)c1`
**Result** 1.85

**Query** Provide thermal shift delta Tm value for the following compound: `Cc1c(CN2CCN(C(=O)[C@H](C)O)CC2)sc2c(N3CCOCC3)nc(-c3cnc(N)nc3)nc12`
**Result** 0.9

**Query** Provide thermal shift delta Tm value for the following compound: `Cc1[nH]c(/C=C2\C(=O)Nc3ccc(S(=O)(=O)Cc4c(Cl)cccc4Cl)cc32)c(C)c1C(=O)N1CCC[C@@H]1CN1CCCC1`
**Result** 1.04

---

Give thermal shift delta Tm for every item shown.
- Tested on: LOC_OS01G57100-cb003;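 note: purified Escherichia coli-expressed rice kinase domain construct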
- ASSAY: thermal shift delta Tm vs DMSO control; higher = stronger stabilization (binding)
- CONDITION_PARAMETERS: 12.5 µM; protein concentration 2 µM
Report the figure in °C without appending any unit label.

**Query** Provide thermal shift delta Tm value for the following compound: O=C1NC(=O)[C@@H](c2cn3c4c(cccc24)CCC3)[C@@H]1c1c[nH]c2ccccc12 [Tivantinib (ARQ 197)]
**Result** 1.7

**Query** Provide thermal shift delta Tm value for the following compound: `Cc1ccc([N+](=O)[O-])cc1S(=O)(=O)N(C)/N=C/c1cnc2ccc(Br)cn12`
**Result** 3.41

**Query** Provide thermal shift delta Tm value for the following compound: COc1cc2c(Oc3ccc4[nH]c(C)cc4c3F)ncnc2cc1OCCCN1CCCC1 [Cediranib (AZD2171)]
**Result** 0.31

**Query** Provide thermal shift delta Tm value for the following compound: `O=C1NC(=O)/C(=C/c2ccc(-c3ccc(F)cc3O)o2)S1`
**Result** 4.13

**Query** Provide thermal shift delta Tm value for the following compound: Nc1cc(C(F)(F)F)c(-c2cc(N3CCOCC3)nc(N3CCOCC3)n2)cn1 [Buparlisib (BKM120, NVP-BKM120)]
**Result** 2.16

**Query** Provide thermal shift delta Tm value for the following compound: `CCCCOc1c(C(=O)c2c(F)cc(C)cc2F)c[nH]c2nncc1-2`
**Result** 0.94

**Query** Provide thermal shift delta Tm value for the following compound: `Cc1ccc(NC(=O)c2cccc(N(C)C)c2)cc1NC(=O)c1ccc(O)cc1`
**Result** 2.98

**Query** Provide thermal shift delta Tm value for the following compound: OC1CCC(Nc2ncc3nc(Nc4c(F)cc(F)cc4F)n([C@H]4CCOC4)c3n2)CC1 (stereo partly drawn) [Tanzisertib(CC-930)]
**Result** 1.12

**Query** Provide thermal shift delta Tm value for the following compound: `O=C(Nc1cc(C(F)(F)F)cc(C(F)(F)F)c1)c1cc(Cl)ccc1O`
**Result** 1.44

**Query** Provide thermal shift delta Tm value for the following compound: Cc1ccc(Nc2nccc(N(C)c3ccc4c(C)n(C)nc4c3)n2)cc1S(N)(=O)=O [Pazopanib]
**Result** 0.76

**Query** Provide thermal shift delta Tm value for the following compound: `CC(C)(C)c1cc(NC(=O)Nc2ccc(Oc3ccnc4[nH]c(=O)cnc34)cc2F)n(-c2ccccc2)n1`
**Result** 1.77

**Query** Provide thermal shift delta Tm value for the following compound: `CNC(=O)c1ccccc1Nc1nc(Nc2ccc(N3CCOCC3)cc2OC)ncc1Cl`
**Result** 2.81

**Query** Provide thermal shift delta Tm value for the following compound: `CN1CCCN(C(=O)c2cccc(-c3ccc(/C=C4/C(=O)Nc5ccc(Cl)cc54)o3)c2)CC1`
**Result** 1.45

**Query** Provide thermal shift delta Tm value for the following compound: C=CC(=O)N1CC[C@@H](Oc2nc(Nc3ccc(N4CCC(N5CCN(C)CC5)CC4)cc3)c(C(N)=O)nc2CC)C1 [Naquotinib(ASP8273)]
**Result** 0.96

**Query** Provide thermal shift delta Tm value for the following compound: `O=C(O)[C@]1(Cc2cccc(Nc3nccs3)n2)CC[C@@H](Oc2cccc(Cl)c2F)CC1`
**Result** 5.7

**Query** Provide thermal shift delta Tm value for the following compound: `CC(C)(O)CNc1ncc(-c2ccnc(Nc3ccnc(Cl)c3)n2)c(CC2CC2)n1`
**Result** 0.99

**Query** Provide thermal shift delta Tm value for the following compound: `Nc1nccc(Oc2ccc(NC(=O)c3c[nH]cc(-c4ccc(F)cc4)c3=O)cc2F)c1Cl`
**Result** 2.6

**Query** Provide thermal shift delta Tm value for the following compound: N#CCNC(=O)c1ccc(-c2ccnc(Nc3ccc(N4CCOCC4)cc3)n2)cc1 [Momelotinib (CYT387)]
**Result** 1.85
